Reference for the values: PubChem BioAssay (NCI)

The entries below come with measured TGI values attached.
System: HOP-92 NSCLC
assay.remarks: NCI tumour cell line growth inhibition, 48 h

molecule	TGI
COC(=O)Nc1nc2ccc(NC(=O)c3ccc(I)cc3)cc2[nH]1	> 100 µM
O=C(C(=O)n1ncc(Cl)c(Cl)c1=O)n1ncc(Cl)c(Cl)c1=O	49.9 µM
NC(N)=NC1C(O)C(O)C(O)C(N=C(N)N)C1O (stereo unspecified)	> 100 µM
CN(C)CCCn1c(=O)c2ccccc2c2cnc3[nH]ccc3c21	8.16 µM
NC1c2ccccc2Nc2ccccc21	16.1 µM
COc1ccc(C(=O)c2cc(C)c(OC)c(C)c2)c(OC)c1NC(C)=O	> 100 µM
O=C(O)/C(Cc1cn[nH]n1)=N\O	> 100 µM
C1CCCCc2nc3c(nc2CCC1)c1nc2c(nc1c1nc4c(nc31)CCCCCCCC4)CCCCCCCC2	> 100 µM
COCCOc1cc(C)cc(/C=C(C)/C=C/C2=C(C)CCCC2(C)C)n1	> 100 µM
COc1ccc(C2=Nc3ccccc3SC(C)C2)cc1OC (stereo unspecified)	> 100 µM
COc1ccccc1S(=O)(=O)Nc1ccc2c3c(cc(CCC(=O)NCCCCNc4cccc5c4C(=O)N(C4CCC(=O)NC4=O)C5=O)cc13)C(=O)N2C (stereo unspecified)	0.515 µM
